- tested-on: T1, Extracellular domain (ECD) of the canine IL-4 receptor alpha-V5 epitope-AviTag-His Tag (canine)
- T1 construct: monomeric form isolated by size exclusion; also called canine IL-4RA-V5-Avi-His; canine IL-4RA
- T1 chain: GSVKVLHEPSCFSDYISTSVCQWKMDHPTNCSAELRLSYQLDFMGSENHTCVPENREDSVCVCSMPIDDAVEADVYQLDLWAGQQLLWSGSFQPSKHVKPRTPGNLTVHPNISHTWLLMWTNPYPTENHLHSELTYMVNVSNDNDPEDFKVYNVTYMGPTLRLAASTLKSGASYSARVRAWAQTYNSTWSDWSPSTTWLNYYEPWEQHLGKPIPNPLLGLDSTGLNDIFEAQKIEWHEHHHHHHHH
- assay-method-text: SPR, Fab-SASA captured on BSA;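 further: biacore T200 SPR, Fab-SASA variants from E. coli conditioned medium captured on BSA-coated CM5 chip, canine IL-4RA injected 120 s then 420 s dissociation, 1:1 model fit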
pKd: −log10 of the molar value.
Measured pKd by item
property: pKd

{"binder": "TB640_005 Fab-SASA VL-Q27T (Fab, V domains shown, not shown: SASA tag then His-tag) VH: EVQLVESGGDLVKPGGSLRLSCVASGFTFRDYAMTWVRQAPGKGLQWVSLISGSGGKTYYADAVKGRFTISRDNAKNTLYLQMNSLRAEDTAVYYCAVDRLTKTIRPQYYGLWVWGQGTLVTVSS VL: DIVMTQTPLSLSVSPGETASISCRSSTSLLYSIGYNYLDWYLQKPGQSPQGLIYLGSKRASGVPDRFSGSGSGTDFTLRISRVEANDTGVYYCMQGLQSPLTFGQGTKLEIKR", "measured-number": 7.80}
{"binder": "TB640_005 Fab-SASA VL-S57N (Fab, V domains shown, not shown: SASA tag then His-tag) VH: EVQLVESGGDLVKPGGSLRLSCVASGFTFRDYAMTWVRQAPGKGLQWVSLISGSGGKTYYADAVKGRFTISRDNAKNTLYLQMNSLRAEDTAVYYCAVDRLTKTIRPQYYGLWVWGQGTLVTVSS VL: DIVMTQTPLSLSVSPGETASISCRSSQSLLYSIGYNYLDWYLQKPGQSPQGLIYLGNKRASGVPDRFSGSGSGTDFTLRISRVEANDTGVYYCMQGLQSPLTFGQGTKLEIKR", "measured-number": 8.06}
